Recorded values, source PubChem BioAssay.

Property: z-score; scope: individual molecules
# testDescription: hepatitis C replication reporter changes, two-sided – Huh7 cells, luciferase reporter, HCV replication inhibitor project, primary screen (AID 1109);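 note: huh7 hepatoma cells harbouring a luciferase neomycin HCV replicon reporter; luciferase luminescence as measure of HCV replicon replication; test concentration not given here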
# measurementContext: Huh7 HCV replicon luciferase reporter, 48 h; higher = more signal
Output: the number by itself.

Q: Name the reported z-score value associated with the molecule Cc1ccc(S[C@]2(C(=O)NCC(F)(F)F)CC(=O)N(C3Cc4ccccc4C3)[C@@H]2c2ccc(CO)cc2I)cc1
Result: -1.55

Q: Similarly, C=C[C@@H](C)[C@@H](OC(=O)Nc1ccc(OC)cc1)c1ccc(O)c2ccccc12 ?
Result: -1.84

Q: Thanks! And CO[C@H]1O[C@H](CO)[C@@H](OC(=O)Nc2ccc(C(F)(F)F)cc2)[C@H](OC(=O)Nc2ccccc2)[C@@H]1OC(=O)Nc1ccccc1 ?
Result: 0.0041

Q: And for Cc1ccc(F)cc1S(=O)(=O)N[C@@H]1CCN(Cc2ccc(C(F)(F)F)cc2)C1 ?
Result: -2.01

Q: Would you mind doing COc1ccc([Si](C)(C)[C@@H]2[C@@H](CC(=O)N3Cc4ccccc4C[C@H]3CO)O[C@]3(C(=O)N(Cc4cccc(N5C(=O)COc6ccccc65)c4)c4ccccc43)[C@H]2C)cc1 as well?
Result: -3.61

Q: Subsequent entry: COC(=O)[C@@]1(Cc2ccc(OC)cc2)[C@H]2c3cc(C(=O)N4CCCC4)n(CCN4CCOCC4)c3C[C@H]2CN1C(=O)c1ccccc1
Result: -0.882

Q: // query: C=C[C@H](C)[C@H](O)c1ccc(OCCO)cc1
Result: -1.54
